# Test system: Kochia (Kochia scoparia)
# Measurement Description: Test A preemergence
# Assay type: in vivo
# Condition Set: 125 g ai/ha, Preemergence; visual injury after approximately 10 d; 0 to 100 scale where 0 is no effect and 100 is complete control
# Excerpt: […]
Observation Type: Plant response rating, Kochia
Answers are plain numbers.

Molecule: O=C1NCC(c2cccc(C(F)(F)F)c2)C1C(=O)Nc1ccc(F)cc1Cl (racemic) [Compound 676]
Plant response rating, Kochia: 0

Would you mind listing Plant response rating, Kochia for each of the following molecules?
1. CC(=O)N1CC(c2cccc(C(F)(F)F)c2)C(C(=O)Nc2ccccc2F)C1=O (centres unmarked) [Compound 503]
2. O=C1NCC(c2cccc(C(F)(F)F)c2F)C1C(=O)Nc1ccccc1F (centres unmarked) [Compound 590]
3. CN1CC(c2cccc(C(F)(F)F)c2)C(C(=O)Nc2ccccc2)C1=O (centres unmarked) [Compound 577]
4. CN1CC(c2ccc(Br)cc2)C(C(=O)Nc2ccc(F)cc2F)C1=O (centres unmarked) [Compound 566]

0
0
50
70

---

Can you tell me pest or weed control at 62.5 g/ha for the items I'm about to list?
# Tested on: ivy-leaved morning glory (Ipomoea hederacea)
# Measurement Description: Test G Pre-Emergence Protocol
# Type: in vivo
# Condition Set: Ipomoea, pre-emergence, 312 h, 62.5 g ai/ha, evaluated after 13 days, 100=total damage to plant, 0=no damage to plant, read-out: Morningglory, Ivy-leaved damage rating
Write the numeric value and follow it with the unit.

Compound: Cc1c(F)cccc1NC(=O)[C@@H]1C(=O)N(C)C[C@H]1c1ccc2nonc2c1 (racemic)
pest or weed control at 62.5 g/ha: 10%

Compound: COc1ncc([C@@H]2CN(C)C(=O)[C@H]2C(=O)Nc2cccc(F)c2F)cc1Cl (racemic)
pest or weed control at 62.5 g/ha: 20%

Compound: CN1CC(c2ccc(Cl)c([N+](=O)[O-])c2)C(C(=O)Nc2cccc(F)c2F)C1=O (stereo not shown)
pest or weed control at 62.5 g/ha: 20%

Compound: CCOc1cc([C@@H]2CN(C)C(=O)[C@H]2C(=O)Nc2cccc(F)c2C)ccc1F (racemic)
pest or weed control at 62.5 g/ha: 0%

Compound: COC(=O)c1cc([C@H]2CN(C)C(=O)[C@@H]2C(=O)Nc2cccc(F)c2F)ccc1C (racemic)
pest or weed control at 62.5 g/ha: 10%

Would you mind listing pest or weed control at 62.5 g/ha for each of the following compounds?
1. COc1cc(C2CN(C)C(=O)C2C(=O)Nc2cccc(F)c2F)cc(Cl)c1F (stereo not shown)
2. CN1C[C@@H](c2ccc(C(F)(F)F)cc2)[C@H](C(=O)Nc2cscn2)C1=O (racemic)

["0%", "0%"]

---

Can you tell me Corn plant response rating (crop injury, 0 = no effect, 100 = complete kill) at 125 g/ha for the items I'm about to list?
# Tested on: corn (Zea mays)
# Measurement Description: Test A postemergence
# Format: in vivo
# Condition Set: Zea mays, post-emergence, 240 h, 125 g ai/ha, postemergence; visual injury after approximately 10 d; 0 to 100 scale (0 no effect, 100 complete control)
One number for each entry, in %.

Solved cases below.
Molecule: Cc1ccc([C@H]2CN(C)C(=O)[C@@H]2C(=O)Nc2ccccc2S(C)(=O)=O)cc1C
Measurement: 40
--
Molecule: CN1C[C@H](c2ccc(C#N)cc2)[C@@H](C(=O)Nc2cccc(F)c2F)C1=O (racemic)
Measurement: 20
--
Molecule: Cc1cc([C@H]2CN(C)C(=O)[C@@H]2C(=O)Nc2cccc(F)c2F)cc(C)c1C
Measurement: 90
--
Molecule: CN1C[C@H](c2cccc(C(F)(F)F)c2)[C@@H](C(=O)Nc2ccccc2C2CC2)C1=O
Measurement: 0
--
Molecule: COc1ccc([C@H]2CNC(=O)[C@@H]2C(=O)Nc2ccccc2S(C)(=O)=O)cc1F
Measurement: 0

Would you mind listing Corn plant response rating (crop injury, 0 = no effect, 100 = complete kill) at 125 g/ha for each of the following molecules?
1. CN1C[C@H](c2cccc(S(C)(=O)=O)c2)[C@@H](C(=O)Nc2cccc(F)c2F)C1=O (racemic)
2. CN1C[C@H](c2nccs2)[C@@H](C(=O)Nc2ccccc2F)C1=O
3. O=C1NC[C@H](c2csc3ccccc23)[C@H]1C(=O)Nc1cccc(F)c1F

1. 40
2. 0
3. 0

---

Can you tell me plant injury at 31 g/ha for the items I'm about to list?
# Tested on: wheat (Triticum aestivum)
# Measurement Description: Test A postemergence
# Assay type: in vivo
# Condition Set: Triticum aestivum, post-emergence, 240 h, Postemergence, 31 g ai/ha; visual injury after approx. 10 d; 0 to 100 scale, 0 no effect, 100 complete control; read-out: Plant response rating, Wheat

Solved cases below.
Molecule: O=C(Nc1cccc(F)c1F)[C@H]1C(=O)N(O)CC[C@@H]1c1ccccc1
Assay Target: wheat (Triticum aestivum)
plant injury at 31 g/ha: 0%
--
Molecule: CN1CC[C@H](c2ccc3c(c2)OC(F)(F)O3)[C@@H](C(=O)Nc2cccc(F)c2F)C1=O
Assay Target: wheat (Triticum aestivum)
plant injury at 31 g/ha: 20%
--
Molecule: CC(C)=CC1CNC(=O)C1C(=O)Nc1ccccc1F (stereo not drawn)
Assay Target: wheat (Triticum aestivum)
plant injury at 31 g/ha: 0%
--
Molecule: CN1CC[C@H](c2cccc(OC(F)(F)F)c2)[C@@H](C(=O)Nc2ccccc2C(F)(F)F)C1=O
Assay Target: wheat (Triticum aestivum)
plant injury at 31 g/ha: 0%

Would you mind listing plant injury at 31 g/ha for each of the following molecules?
1. COCOCc1ccccc1NC(=O)[C@H]1C(=O)N(C)C[C@@H]1c1cccc(C(F)(F)F)c1 (racemic)
2. CSc1ccccc1NC(=O)[C@H]1C(=O)N(C)C[C@@H]1c1cc(C(F)F)cs1

1. 0%
2. 0%

---

Can you tell me pest or weed control at 500 g/ha for the items I'm about to list?
# Tested on: ragweed (common ragweed, Ambrosia elatior)
# Measurement Description: Test A postemergence
# Format: in vivo
# Condition Set: Ambrosia artemisiifolia, post-emergence, 240 h, Postemergence, 500 g ai/ha; visual injury, 0 to 100 scale (0 no effect, 100 complete control), approx. 10 d; read-out: Plant response rating, Ragweed
Write the numeric value and follow it with the unit.

Solved cases below.
Molecule: CSc1ccccc1NC(=O)[C@H]1C(=O)N(C)C[C@@H]1c1ccc(C(F)(F)F)cc1
pest or weed control at 500 g/ha: 60%
--
Molecule: CN1C[C@H](c2cc(C(F)(F)F)cs2)[C@@H](C(=O)Nc2cccc(F)c2F)C1=O
pest or weed control at 500 g/ha: 60%
--
Molecule: C=CCOc1cccc(C2CN(C)C(=O)C2C(=O)Nc2ccccc2F)c1 (stereo not shown)
pest or weed control at 500 g/ha: 0%

Attention now turns to another entry.
Sample "CN1CC[C@H](c2cccc(C(F)(F)F)c2)[C@@H](C(=O)Nc2cccc(F)c2F)C1=O" ; pest or weed control at 500 g/ha observed: 20%

---

# Tested on: barnyardgrass (Echinochloa crus-galli)
# Measurement Description: Test B flooded paddy test
# Type: in vivo
# Condition Set: Flood, 250 g ai/ha; 0 to 100 scale where 0 is no effect and 100 is complete control; 13 to 15 d
Observation Type: Plant response rating, Barnyardgrass
Give bare numbers.

Solved cases below.
Molecule: Cc1cc(C2CN(C)C(=O)C2C(=O)Nc2ccccc2F)ccc1F (stereo not shown) [Compound 402]
Plant response rating, Barnyardgrass: 100
//
Molecule: O=C1NCC(c2c(F)cccc2F)C1C(=O)Nc1cccc(F)c1F (racemic) [Compound 516]
Plant response rating, Barnyardgrass: 0
//
Molecule: CN1CC(c2cc(F)cc(F)c2)C(C(=O)Nc2ccccc2F)C1=O (stereo not shown) [Compound 643]
Plant response rating, Barnyardgrass: 80
//
Molecule: CN1CC(c2cccc(OC(F)F)c2)C(C(=O)Nc2cccc(F)c2F)C1=O (stereo not shown) [Compound 616]
Plant response rating, Barnyardgrass: 70

Would you mind listing Plant response rating, Barnyardgrass for each of the following molecules?
1. CN1CC(c2ccc(F)cc2)C(C(=O)Nc2ccccc2F)C1=O (stereo not shown) [Compound 437]
2. O=C1NCC(c2cc(F)c(F)cc2F)C1C(=O)Nc1ccccc1F (racemic) [Compound 549]

[65, 25]

---

# Test system: blackgrass (Alopecurus myosuroides)
# Measurement Description: Test A postemergence
# Assay type: in vivo
# Condition Set: 125 g ai/ha, postemergence; visual injury rating on 0 to 100 scale (0 no effect, 100 complete control), approx. 10 d
Observation Type: Blackgrass plant response rating
One number for each entry.

Solved cases below.
Molecule: O=C(Nc1ccccc1F)C1C(=O)N(CC=CBr)CC1c1cccc(C(F)(F)F)c1 (stereo not drawn) [Compound 484]
Observation Type: Blackgrass plant response rating
Measurement: 0
//
Molecule: O=C(Nc1ccccc1F)C1C(=O)N(c2ccccc2)CC1c1cccc(C(F)(F)F)c1 (stereo not drawn) [Compound 456]
Observation Type: Blackgrass plant response rating
Measurement: 0

Sample Cc1cc(C2CN(C)C(=O)C2C(=O)Nc2ccccc2C(F)(F)F)ccc1F (stereo not drawn) [Compound 406] ; Blackgrass plant response rating observed: 30

Source of measurements: patent US12077503B2
